Source: paper PMC9482650

- assay.target: NHERF2_2, Q15599
- Sequence (Q15599 142-238): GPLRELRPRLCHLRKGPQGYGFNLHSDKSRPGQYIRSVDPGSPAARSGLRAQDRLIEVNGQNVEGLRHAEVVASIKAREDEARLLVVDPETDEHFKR
- test.protocol: holdup assay
- Parameters: key: below the threshold = too weak to quantify, mostly under pKd 3.1 to 4
- assay.conditions: plain residues with an end cap or a label only (N-terminal biotin on a linker: ttds)

binder	pKd
SGGKRKETLV [NET1, Q7Z628]	below the threshold
PSRDRKETSI [RALBP1, Q15311]	below the threshold
SHSSKGETAV [FZD7, O75084]	below the threshold
KQVVPFSSSV [GDA, Q9Y2T3]	below the threshold
NPDALPETLV [ARHGAP6, O43182]	below the threshold
GRLLGLETNV [ARHGEF26, Q96DR7]	below the threshold
PPRQRSETQV [HPV82-E6, Q9IR59]	below the threshold
PFRSRSPSEV [GPR6, P46095]	below the threshold
SSIDLWETAL [SLC15A5, A6NIM6]	5.41
SRSRRRETAL [HPV33-E6, P06427]	3.97
KLVIKTETTV [RASSF6, Q6ZTQ3]	below the threshold
